This section presents compounds with their documented EC50 values.
target: Oxysterols receptor LXR-beta (Homo sapiens); assay: Agonist activity at LXR-beta in human HeLa cells assessed as induction of ABCA1 by beta-galactosidase/luciferase reporter gene assay; format: cell-based
Sequence (P55055 whole entry): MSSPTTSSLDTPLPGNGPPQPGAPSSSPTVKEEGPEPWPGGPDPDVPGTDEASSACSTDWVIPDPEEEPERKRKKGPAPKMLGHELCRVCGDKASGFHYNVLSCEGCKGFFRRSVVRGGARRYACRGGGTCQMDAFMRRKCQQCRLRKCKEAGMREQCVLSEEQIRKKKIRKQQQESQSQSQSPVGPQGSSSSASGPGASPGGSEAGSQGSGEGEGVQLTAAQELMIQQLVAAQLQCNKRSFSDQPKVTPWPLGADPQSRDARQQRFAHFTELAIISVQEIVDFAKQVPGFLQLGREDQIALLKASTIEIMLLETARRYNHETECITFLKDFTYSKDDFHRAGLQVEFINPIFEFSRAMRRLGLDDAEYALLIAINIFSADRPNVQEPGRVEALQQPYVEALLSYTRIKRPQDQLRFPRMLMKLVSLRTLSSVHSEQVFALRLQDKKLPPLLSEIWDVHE

>  <compound>
CC(C)(O)c1cn(-c2ccc(-c3cc(F)c(CO)c(S(C)(=O)=O)c3)cc2Cl)c(C(C)(C)c2c(Cl)cccc2Cl)n1

>  <target_under_test>
Oxysterols receptor LXR-beta (Homo sapiens)

>  <units_text>
nM

>  <EC50>
2

$$$$
>  <compound>
CC(C)(O)c1cn(-c2ccc(-c3cc(F)c(CO)c(S(C)(=O)=O)c3)cc2)c(C(C)(C)c2ccccc2F)n1

>  <target_under_test>
Oxysterols receptor LXR-beta (Homo sapiens)

>  <units_text>
nM

>  <EC50>
12

$$$$
>  <compound>
CC(C)(O)c1cn(-c2ccc(-c3cc(F)c(CO)c(S(C)(=O)=O)c3)cc2F)c(C(C)(C)c2ccccc2Cl)n1

>  <target_under_test>
Oxysterols receptor LXR-beta (Homo sapiens)

>  <units_text>
nM

>  <EC50>
2

$$$$
>  <compound>
CC(C)(O)c1cn(-c2ccc(-c3cc(F)c(CO)c(S(C)(=O)=O)c3)cc2)c(C(C)(C)c2c(Cl)cccc2Cl)n1

>  <target_under_test>
Oxysterols receptor LXR-beta (Homo sapiens)

>  <units_text>
nM

>  <EC50>
3

$$$$
>  <compound>
CC(C)(O)c1cn(-c2ccc(-c3ccc(CO)c(S(C)(=O)=O)c3)cc2)c(Cc2ccccc2Cl)n1

>  <target_under_test>
Oxysterols receptor LXR-beta (Homo sapiens)

>  <units_text>
nM

>  <EC50>
9

$$$$
>  <compound>
CC(C)(O)c1cn(-c2ccc(-c3cc(F)c(CO)c(S(C)(=O)=O)c3)cc2)c(Cc2c(Cl)cccc2Cl)n1

>  <target_under_test>
Oxysterols receptor LXR-beta (Homo sapiens)

>  <units_text>
nM

>  <EC50>
5

$$$$
>  <compound>
CC(C)(O)c1cn(-c2ccc(-c3ccc(CO)c(S(C)(=O)=O)c3)cc2)c(C(C)(C)c2ccccc2Cl)n1

>  <target_under_test>
Oxysterols receptor LXR-beta (Homo sapiens)

>  <units_text>
nM

>  <EC50>
12

$$$$
>  <compound>
CC(C)(O)c1cn(-c2ccc(-c3cc(F)c(CO)c(S(C)(=O)=O)c3)cc2)c(C(C)(C)c2ccccc2Cl)n1

>  <target_under_test>
Oxysterols receptor LXR-beta (Homo sapiens)

>  <units_text>
nM

>  <EC50>
8

$$$$
>  <compound>
CC(O)c1ccc(-c2ccc(-n3cc(C(C)(C)O)nc3C(C)(C)c3ccccc3Cl)cc2)cc1S(C)(=O)=O (stereo not given)

>  <target_under_test>
Oxysterols receptor LXR-beta (Homo sapiens)

>  <units_text>
nM

>  <EC50>
21

$$$$
>  <compound>
CC(C)(O)c1cn(-c2ccc(-c3cccc(S(C)(=O)=O)c3)cc2)c(C(C)(C)c2ccccc2Cl)n1

>  <target_under_test>
Oxysterols receptor LXR-beta (Homo sapiens)

>  <units_text>
nM

>  <EC50>
33

$$$$

* * *

biological target: UniProtKB Q13133; assay: Agonist activity at human LXR-alpha expressed in African green monkey CV1 cells measured after 18 to 20 hrs by luciferase reporter gene assay
Sequence (Q13133 whole entry): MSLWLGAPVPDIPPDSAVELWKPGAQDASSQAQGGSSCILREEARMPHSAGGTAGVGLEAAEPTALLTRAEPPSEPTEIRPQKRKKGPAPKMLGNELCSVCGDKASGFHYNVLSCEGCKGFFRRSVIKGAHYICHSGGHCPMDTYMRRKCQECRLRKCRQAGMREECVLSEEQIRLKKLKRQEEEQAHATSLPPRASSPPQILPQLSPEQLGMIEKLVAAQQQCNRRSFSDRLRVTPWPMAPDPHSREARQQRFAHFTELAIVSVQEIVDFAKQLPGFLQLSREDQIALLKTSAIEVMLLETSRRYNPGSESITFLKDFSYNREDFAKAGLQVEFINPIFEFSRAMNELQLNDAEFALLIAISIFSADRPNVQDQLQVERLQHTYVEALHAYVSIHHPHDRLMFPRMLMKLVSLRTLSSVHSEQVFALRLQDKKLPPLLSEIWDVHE
This section presents compounds with their documented EC50 values.

>  <compound>
CC(C)(O)c1cn(-c2ccc(-c3cc(F)c(CO)c(S(C)(=O)=O)c3)cc2)c(C(C)(C)c2ccccc2F)n1

>  <units_text>
nM

>  <EC50>
130

$$$$
>  <compound>
CC(C)(O)c1cn(-c2ccc(-c3cc(F)c(CO)c(S(C)(=O)=O)c3)cc2F)c(C(C)(C)c2ccccc2Cl)n1

>  <units_text>
nM

>  <EC50>
57

$$$$
>  <compound>
CC(C)(O)c1cn(-c2ccc(-c3ccc(CO)c(S(C)(=O)=O)c3)cc2)c(Cc2ccccc2Cl)n1

>  <units_text>
nM

>  <EC50>
100

$$$$
>  <compound>
CC(C)(O)c1cn(-c2ccc(-c3cccc(S(C)(=O)=O)c3)cc2)c(C(C)(C)c2c(Cl)cccc2Cl)n1

>  <units_text>
nM

>  <EC50>
99

$$$$
>  <compound>
CC(C)(O)c1cn(-c2ccc(-c3cc(F)c(CO)c(S(C)(=O)=O)c3)cc2)c(Cc2c(Cl)cccc2Cl)n1

>  <units_text>
nM

>  <EC50>
69

$$$$
>  <compound>
CC(c1c(Cl)cccc1Cl)c1nc(C(C)(C)O)cn1-c1ccc(-c2cc(F)c(CO)c(S(C)(=O)=O)c2)cc1F (stereo unspecified)

>  <units_text>
nM

>  <EC50>
12

$$$$
